System: Wnt activity (Sp5-Luc reporter, Wnt-responsive promoter) in SW480 colon carcinoma cells
Assay: Wnt activity screening assay: Sp5-Luc reporter gene assay in SW480 cells
Format: cell-based
Settings: Homo sapiens, overnight incubation, 10-point curve starting from 10 μM
Experimental: The screening assay for Wnt activity is described as follows. […] SW480 colon carcinoma cells were transduced with a lentiviral vector expressing luciferase with a human Sp5 promoter consisting of a sequence of eight TCF/LEF binding sites. […] Following incubation, 20 μl of BrightGlo luminescence reagent (Promega) was added to each well of the 384-well assay plates. The plates were placed on an orbital shaker for 2 min and then luminescence was quantified using the Envision (Perkin Elmer) plate reader. […]
Readout type: EC50 (nM)
Quick reminder: number only, in nM, skip the unit.

// known answers, use as guide
QUERY: Tell me measured EC50 for `O=C(Nc1cncc(-c2ccc3[nH]nc(-c4nc5ccccc5[nH]4)c3n2)c1)C1CCCCC1` please.
RESULT: 1980

QUERY: Tell me measured EC50 for `Cc1ccncc1-c1ccc2[nH]nc(-c3nc4c(-c5cc(F)cc(CNS(C)(=O)=O)c5)cccc4[nH]3)c2n1` please.
RESULT: 1340

Moving on to another compound below.
QUERY: Tell me measured EC50 for `FC1(F)CCN(Cc2cncc(-c3ccc4[nH]nc(-c5nc6c(-c7ccsc7)cccc6[nH]5)c4n3)c2)C1` please.
RESULT: 1650
